I'd be grateful if you could share measured melting point for these entries.

Problem: So what does the record say about melting point for `Cn1cc(C2=C(c3cn(CCC(=O)O)c4ccccc34)C(=O)NC2=O)c2ccccc21` ?
Solution: 256 to 258 °C

Problem: So what does the record say about melting point for `CC(C)c1cccc(C(C)C)c1NC(=O)Cc1ccccc1NCC(c1ccccc1)c1ccccc1` ?
Solution: 174 to 176 °C

Problem: So what does the record say about melting point for `COc1cc2cc3c(=O)nc[nH]c3nc2cc1OC` ?
Solution: 311 to 312 °C

Problem: So what does the record say about melting point for `CCOC(=O)c1cn(-c2nccnn2)cn1` ?
Solution: 193 to 194 °C

Problem: So what does the record say about melting point for `COc1ccccc1C(=O)c1ccc(OC)c(Cl)c1Cl` ?
Solution: 94 to 96 °C

Problem: So what does the record say about melting point for N#Cc1ccc(C(Cc2ccc(C#N)cn2)Cn2cncn2)cc1 (stereo not given) ?
Solution: 98 °C

Problem: So what does the record say about melting point for `O=C1CNc2ncc(I)cc2N1Cc1c(Cl)cccc1Cl` ?
Solution: > 200 °C

Problem: So what does the record say about melting point for `COc1cccc2c1nc(C(F)F)n2-c1nc(N2CCOCC2)c2ncn(-c3cncnc3)c2n1` ?
Solution: 248 to 251 °C

Problem: So what does the record say about melting point for `CCCCn1c(=O)c(NC(=O)Nc2cc(Cc3cc[nH]n3)ccc2C(C)(C)C)c(-c2cccc(OCCCO)c2)c2cccnc21` ?
Solution: 116 to 119 °C

Problem: So what does the record say about melting point for `O=C(O)c1sccc1C(F)F` ?
Solution: 119 to 120 °C

###

readout.kind: melting point

Problem: So what does the record say about melting point for `O=C(O)c1ccccc1Sc1c(O)c2ccc(Cl)cc2[nH]c1=O` ?
Solution: > 300 °C

Problem: So what does the record say about melting point for `COc1ccc(CCNc2nccc(-c3cccc(NC(C)=O)c3)n2)cc1OC` ?
Solution: 146 to 148 °C

Problem: So what does the record say about melting point for `CC(C)(C)c1cc(CCc2ccccc2NC(=O)NC2CCCC2)cc(C(C)(C)C)c1O` ?
Solution: 186 to 187 °C

Problem: So what does the record say about melting point for `CCC(CC)(CC(=O)Nc1cccc(/C=C/c2cccc(COCCCCc3ccc(C)cc3)n2)c1)C(=O)O` ?
Solution: 114 to 116 °C

Problem: So what does the record say about melting point for CCCCc1nc2c(N)nc3ccccc3c2n1CCCCCS(C)=O (stereo not given) ?
Solution: 119 to 121 °C

###

I'd be grateful if you could share measured melting point for these entries.

Problem: So what does the record say about melting point for `Cc1onc(-c2cccc(Cl)c2)c1CO` ?
Solution: 66 to 68 °C

Problem: So what does the record say about melting point for CCOC(=O)C(C)Oc1ncn(-c2ccc(C)cc2)n1 (stereo unspecified) ?
Solution: 69 to 71 °C

Problem: So what does the record say about melting point for O=C1C2=C(SCCN2)C2CSCCN12 (stereo unspecified) ?
Solution: 142 °C

Problem: So what does the record say about melting point for `O=C(C=Cc1ccc(Cl)cc1Cl)c1ccccc1[N+](=O)[O-]` ?
Solution: 130 to 132 °C

Problem: So what does the record say about melting point for `O=S(=O)(CCO)Cc1ccc(CS(=O)(=O)CCO)cc1` ?
Solution: 210 to 212 °C

Problem: So what does the record say about melting point for `CCc1c(Sc2cc(Cl)cc(Cl)c2)c(C(N)=O)nn1CCO` ?
Solution: 214 to 216 °C

Problem: So what does the record say about melting point for `Cc1ccc(-c2c(Cl)nc(C#N)n2S(=O)(=O)c2c(C)noc2C)cc1` ?
Solution: 103 to 108 °C

Problem: So what does the record say about melting point for OCC1CC(F)C(n2cnc3c(Cl)ncnc32)O1 (stereo unspecified) ?
Solution: 157 to 158 °C

Problem: So what does the record say about melting point for `Cc1ccc(NCCN(C)C)c([N+](=O)[O-])c1` ?
Solution: 59 °C

Problem: So what does the record say about melting point for `Cc1ccc(S(=O)(=O)Nc2ccc(CCCC(=O)O)nc2)cc1` ?
Solution: 154 to 155 °C

Problem: So what does the record say about melting point for `CN1Cc2c(N)ncn2-c2ccccc2C1=O` ?
Solution: 202 to 204 °C
